# assayNotes: Oral bioavailability in Wistar rat at 30 mg/kg
# Type: ADME, organism-based
# recordedConditions: in vivo
measuredParameter: bioavailability (%)
Express your answer in %, writing the number without its unit.

[Q] What does the record list as bioavailability for Cn1nc(C(=O)N(Cc2ccccc2)Cc2ccc(C(=O)O)cc2)c2c1-c1cc(Cl)ccc1OC2 [NIDUFEXOR] ?
[A] 52

====

# assayNotes: Terminal half life in orally dosed rat
# Type: ADME, organism-based
# recordedConditions: in vivo, po, read-out: beta t1/2 (converted)
measuredParameter: half-life (h)
// note: answer is a bare numeric in h

[Q] Can you share its half-life? I mean this molecule: Cn1nc(C(=O)N(Cc2ccccc2)Cc2ccc(C(=O)O)cc2)c2c1-c1cc(Cl)ccc1OC2 [NIDUFEXOR]
[A] 13

====

# assayNotes: Half life in mouse at 3 mg/kg, iv
# Assay type: ADME, organism-based
# recordedConditions: in vivo
measuredParameter: half-life (min)
The reply should contain only the number, in min.

[Q] Request the reported half-life associated with Cn1nc(C(=O)N(Cc2ccccc2)Cc2ccc(C(=O)O)cc2)c2c1-c1cc(Cl)ccc1OC2 [NIDUFEXOR]
[A] 270

====

# assayNotes: Half life in rabbit at 5 mg/kg, iv
# Type: ADME, organism-based, Oryctolagus cuniculus
# recordedConditions: in vivo
measuredParameter: half-life (h)
Just the number in h, nothing appended.

[Q] Entry Cn1nc(C(=O)N(Cc2ccccc2)Cc2ccc(C(=O)O)cc2)c2c1-c1cc(Cl)ccc1OC2 [NIDUFEXOR] : reported half-life = ?
[A] 4.4

====

# assayNotes: Cmax in Wistar rat at 3 mg/kg, po
# Type: ADME, organism-based
# Design: dose 3 mg/kg, route oral
# recordedConditions: in vivo
measuredParameter: Cmax (µM)
Expressed in µM, but write only the number.

[Q] For Cn1nc(C(=O)N(Cc2ccccc2)Cc2ccc(C(=O)O)cc2)c2c1-c1cc(Cl)ccc1OC2 [NIDUFEXOR] , what is its reported Cmax?
[A] 4.5

====

# assayNotes: AUC in Wistar rat at 100 mg/kg, po
# Type: ADME, organism-based
# recordedConditions: in vivo
measuredParameter: AUC
Answer shape: numeric part, then the unit.

[Q] Given Cn1nc(C(=O)N(Cc2ccccc2)Cc2ccc(C(=O)O)cc2)c2c1-c1cc(Cl)ccc1OC2 [NIDUFEXOR] , state its recorded AUC.
[A] 399 µM·h

====

# assayNotes: Half life in Wistar rat at 10 mg/kg, po
# Type: ADME, organism-based
# recordedConditions: in vivo
measuredParameter: half-life (min)
Reply numerically in min, unit not repeated.

[Q] Recorded half-life of Cn1nc(C(=O)N(Cc2ccccc2)Cc2ccc(C(=O)O)cc2)c2c1-c1cc(Cl)ccc1OC2 [NIDUFEXOR] , please.
[A] 342

Taken from ChEMBL document CHEMBL4402557.
